These entries and their values trace back to patent EP3891153B1.

Assay protocol: UV/VIS and fluorescence studies (spectral properties of the probes in four solvents)
Format: physicochemical
Condition context: solvent DMSO; 1 µM or 0,1 µM
Quantity kind: Emission maxima (nm)

{"columns": ["Structure smiles string", "Emission maxima (nm)"],
 "data": [
  ["CN(C)CCNC(=O)c1cc2c(cc3c4c(cccc42)C(=O)N(C)C3=O)o1", 435],
  ["CCCCCCN1C(=O)c2cccc3c2c(cc2oc(=O)c(C(=O)NCCN(C)C)cc23)C1=O", 440],
  ["CCCCCCN1C(=O)c2cccc3c2c(cc2cc(C(=O)NCCN(C)C)oc23)C1=O", 416],
  ["CCCCCCN1C(=O)c2cccc3c2c(cc2cc(C(=O)NCCN(C)C)c(=O)oc23)C1=O", 432],
  ["CCCCCCN1C(=O)c2cccc3c2c(cc2oc(C(=O)NCCN(C)C)cc23)C1=O", 424]
]}

---

Assay protocol: UV/VIS and fluorescence studies (spectral properties of the probes in four solvents)
Assay type: physicochemical
Condition context: solvent EtOH; 1 µM or 0,1 µM
Quantity kind: Absorbance maxima (nm)

{"columns": ["Structure smiles string", "Absorbance maxima (nm)"],
 "data": [
  ["CCCCCCN1C(=O)c2cccc3c2c(cc2oc(C(=O)NCCN(C)C)cc23)C1=O", 376],
  ["CN(C)CCNC(=O)c1cc2c(cc3c4c(cccc42)C(=O)N(C)C3=O)o1", 365],
  ["CCCCCCN1C(=O)c2cccc3c2c(cc2cc(C(=O)NCCN(C)C)c(=O)oc23)C1=O", 319],
  ["CCCCCCN1C(=O)c2cccc3c2c(cc2oc(=O)c(C(=O)NCCN(C)C)cc23)C1=O", 388],
  ["CCCCCCN1C(=O)c2cccc3c2c(cc2cc(C(=O)NCCN(C)C)oc23)C1=O", 341]
]}

---

Assay protocol: UV/VIS and fluorescence studies (spectral properties of the probes in four solvents)
Type: physicochemical
Condition context: solvent PBS; 1 µM or 0,1 µM
Quantity kind: Absorbance maxima (nm)

{"columns": ["Compound", "Absorbance maxima (nm)"],
 "data": [
  ["CCCCCCN1C(=O)c2cccc3c2c(cc2cc(C(=O)NCCN(C)C)oc23)C1=O [Probe 8]", 360],
  ["CCCCCCN1C(=O)c2cccc3c2c(cc2oc(C(=O)NCCN(C)C)cc23)C1=O [Probe 6]", 373],
  ["CCCCCCN1C(=O)c2cccc3c2c(cc2cc(C(=O)NCCN(C)C)c(=O)oc23)C1=O [Probe 4]", 320],
  ["CN(C)CCNC(=O)c1cc2c(cc3c4c(cccc42)C(=O)N(C)C3=O)o1 [Probe 10]", 377],
  ["CCCCCCN1C(=O)c2cccc3c2c(cc2oc(=O)c(C(=O)NCCN(C)C)cc23)C1=O [Probe 2]", 389]
]}

---

Assay protocol: UV/VIS and fluorescence studies (spectral properties of the probes in four solvents)
Format: physicochemical
Condition context: solvent MeOH; 1 µM or 0,1 µM
Quantity kind: Absorbance maxima (nm)

{"columns": ["Structure smiles string", "Recorded number"],
 "data": [
  ["CCCCCCN1C(=O)c2cccc3c2c(cc2cc(C(=O)NCCN(C)C)c(=O)oc23)C1=O", 317],
  ["CCCCCCN1C(=O)c2cccc3c2c(cc2oc(C(=O)NCCN(C)C)cc23)C1=O", 373],
  ["CCCCCCN1C(=O)c2cccc3c2c(cc2oc(=O)c(C(=O)NCCN(C)C)cc23)C1=O", 387],
  ["CCCCCCN1C(=O)c2cccc3c2c(cc2cc(C(=O)NCCN(C)C)oc23)C1=O", 341],
  ["CN(C)CCNC(=O)c1cc2c(cc3c4c(cccc42)C(=O)N(C)C3=O)o1", 372]
]}

---

Assay protocol: UV/VIS and fluorescence studies (spectral properties of the probes in four solvents)
Type: physicochemical
Condition context: solvent PBS; 1 µM or 0,1 µM
Quantity kind: Emission maxima (nm)

{"columns": ["Compound", "Unit symbol", "Emission maxima (nm)"],
 "data": [
  ["CCCCCCN1C(=O)c2cccc3c2c(cc2oc(C(=O)NCCN(C)C)cc23)C1=O [Probe 6]", "nm", 429],
  ["CCCCCCN1C(=O)c2cccc3c2c(cc2oc(=O)c(C(=O)NCCN(C)C)cc23)C1=O [Probe 2]", "nm", 448],
  ["CN(C)CCNC(=O)c1cc2c(cc3c4c(cccc42)C(=O)N(C)C3=O)o1 [Probe 10]", "nm", 431],
  ["CCCCCCN1C(=O)c2cccc3c2c(cc2cc(C(=O)NCCN(C)C)c(=O)oc23)C1=O [Probe 4]", "nm", 437],
  ["CCCCCCN1C(=O)c2cccc3c2c(cc2cc(C(=O)NCCN(C)C)oc23)C1=O [Probe 8]", "nm", 428]
]}
